experimental system: T1, 4H918-bA
T1 chain: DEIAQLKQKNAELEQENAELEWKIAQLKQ
protocol notes: two-hybrid library CCNG1;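 note: natural log of median RNA to DNA barcode read ratio; higher means stronger binding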
measured quantity: interaction score

>>> result("DKIAQLKQEIAELKQKNAELEWEIAQLEQ [4H2673-bA]")
-0.235

Task item: I'd like to know its interaction score. The binder in question is DKIAQLKQKNAELKQEIAELEWEIAQLKQ [4H3010-bA]
Reply: -0.579

Task item: Could you tell me which interaction score is on file for DEIAQLEQEIAELKQKNAELEWKIAQLKQ [4H118-bA] ?
Reply: -0.49

Task item: What value of interaction score has been reported for the following binder? DENAQLEQENAELEQKIAELKWEIAQLEQ [4H1193-bA]
Reply: -1.33
